tested on: Plasmodium falciparum NF54 stage IV/V gametocytes; experiment: % inhibition of gametocyte viability (ATP bioluminescence); higher = more inhibition; conditions: 1 µM; 24 h
This section presents compounds with their documented % inhibition of gametocyte viability values.
Reply with just the number (in %).

Worked cases, answers included:
Query string: Please give the measured % inhibition of gametocyte viability for this compound: "CC[C@@]1(O)C(=O)OCc2c1cc1n(c2=O)Cc2cc3c(CN(C)C)c(O)ccc3nc2-1"
Result string: 6.83

Query string: Give the measured % inhibition of gametocyte viability of "Cn1cc(NC(=O)c2cc(NC(=O)c3ccc(/C=C/c4cnc5ccccc5c4)cc3)cn2C)cc1C(=O)NCCN1CCOCC1" .
Result string: 22.3

Query string: Would you kindly share the measured % inhibition of gametocyte viability for "C[C@@H](NC(=O)c1cccc(-c2c[nH]c(-c3cc4ccccc4cn3)n2)c1)c1ccc(F)cc1" ?
Result string: 28.5

Query string: What value of % inhibition of gametocyte viability has been recorded for this entry: O=C(CC1Sc2ncnn2C1=O)Nc1ccc(Br)cc1 (stereo not given)
Result string: 8.79

Query string: Bench note: what % inhibition of gametocyte viability did "COc1ccc(OCc2ccc(COc3c(Cl)cccc3Cl)cc2)c(Cl)c1" show?
Result string: 4.45

***
Query string: Entry "Nc1cc(-c2nc3ccccc3[nH]2)n[nH]c1=O" : reported % inhibition of gametocyte viability = ?
Result string: 5.5

Query string: Return reported % inhibition of gametocyte viability; argument: "CCc1c(OCC2CCC2)c2cc(F)ccc2[nH]c1=O"
Result string: 7.14

Query string: What % inhibition of gametocyte viability value was documented for this compound, "Clc1ccc(Cn2c(CN3CCCC3)nc3ccccc32)cc1" ?
Result string: 10.2

Query string: Would you kindly share the measured % inhibition of gametocyte viability for "Cc1c(F)cccc1NC(=O)Nc1ccc(Cl)c(S(=O)(=O)[C@H]2CCCNC2)c1O" ?
Result string: 8.93

---

test system: Plasmodium berghei ANKA liver stage in HepG2-A16-CD81; assay: % inhibition of liver stage parasite viability (luciferase); higher = more inhibition; conditions: 5 µM; 48 h
test readout: % inhibition of liver stage parasite viability (%)
Hi! Could you send only the number? It should be in %, unit omitted.

Query string: What value of % inhibition of liver stage parasite viability has been reported for the following molecule? COc1ccc(CNC(=O)C(NS(=O)(=O)c2ccc3nc(C)sc3c2)C(C)C)cc1 (centres undefined)
Result string: 21.7

Query string: Fill in the blank: the reported % inhibition of liver stage parasite viability of "O=C(/C=C\n1cnc(-c2cc(C(F)(F)F)cc(C(F)(F)F)c2)n1)NNc1ccccn1" is ____.
Result string: 16.2

Query string: Form field: reported % inhibition of liver stage parasite viability of "CC(C)(C)NC(=O)[C@@H]1CN(Cc2cnc3occc3c2)CCN1C[C@@H](O)C[C@@H](Cc1ccccc1)C(=O)N[C@H]1c2ccccc2C[C@H]1O"
Result string: 36

We now examine a further molecule.
Query string: Name the reported % inhibition of liver stage parasite viability value associated with the molecule "Oc1ccc(NCc2ccccc2OCc2ccccc2)cc1"
Result string: 25.2

---

Entries and their % inhibition of asexual blood stage proliferation values follow.
test system: Plasmodium falciparum NF54 asexual blood stage; assay: % inhibition of asexual blood stage proliferation (pLDH); higher = more inhibition; conditions: 2 µM; 72 h
Numeric answer only, unit % assumed.

Use these answered entries as a reference point.
Query string: Which % inhibition of asexual blood stage proliferation value belongs to "N#Cc1cc([N+](=O)[O-])ccc1Oc1ccccc1Cl" ?
Result string: -2.85

Query string: Look up % inhibition of asexual blood stage proliferation for this compound: "Cc1onc(-c2ccccc2)c1-c1ccc(S(N)(=O)=O)cc1"
Result string: 48.8

Query string: Report % inhibition of asexual blood stage proliferation for "CC(=O)Oc1ccccc1C(=O)Nc1ncc([N+](=O)[O-])s1" please.
Result string: 14.2

Query string: Give the measured % inhibition of asexual blood stage proliferation of "CN1CCN(Cc2ccc(-c3cnc4[nH]cc(-c5ccc6[nH]ccc6c5)c4c3)cc2)CC1" .
Result string: 66

Query string: So what does the record say about % inhibition of asexual blood stage proliferation for "O=C(O)c1cc(-c2ccc(Br)cc2)nc2ccc(Cl)cc12" ?
Result string: 7.74

---
Query string: Please give the measured % inhibition of asexual blood stage proliferation for this compound: "CN(C)c1[nH]c(=O)ncc1F"
Result string: -4.48
